- System: MCF7
- Assay info: Cytotoxicity against human MCF7 cells after 96 hrs by SRB assay
- Type: functional, cell-based
- Test conditions: MCF7, 96 h
Parameter: pIC50
For clarity, pIC50 is expressed as the negative log10 of concentration in mol/L.

>>> measured_value("O=C(CCCN1CCCC1)Nc1cccc(NC(=O)c2cccc(NC(=O)Nc3cccc(C(=O)Nc4cccc(NC(=O)CCCN5CCCC5)c4)c3)c2)c1")
4.30
>>> measured_value("O=C(CCN1CCCC1)Nc1cccc(NC(=O)c2cccc(NC(=O)Nc3cccc(C(=O)Nc4cccc(NC(=O)CCN5CCCC5)c4)c3)c2)c1")
4.84

Now look at this one.
## Input Endpoint output: pIC50 of O=C(CCN1CCCC1)Nc1cccc(NC(=O)c2ccc(NC(=O)Nc3ccc(C(=O)Nc4cccc(NC(=O)CCN5CCCC5)c4)cc3)cc2)c1 . Value?
## Output 5.49

###

- System: MCF7
- Assay info: Cytotoxicity against human MCF7 cells after 96 hrs by SRB assay
- Assay type: functional, cell-based
- Test conditions: MCF7, 96 h
Parameter: pIC50
For clarity, pIC50 is expressed as the negative log10 of concentration in mol/L.

>>> measured_value("O=C(CN1CCCC1)Nc1cc(NC(=O)Nc2cc(NC(=O)CN3CCCC3)cc(C(=O)Nc3ccccc3)c2)cc(C(=O)Nc2ccccc2)c1")
4.66

## Input Endpoint output: pIC50 of O=C(CCCN1CCCC1)Nc1ccc(NC(=O)c2cccc(NC(=O)Nc3cccc(C(=O)Nc4ccc(NC(=O)CCCN5CCCC5)cc4)c3)c2)cc1 . Value?
## Output 4.95

## Input Endpoint output: pIC50 of O=C(CCN1CCCC1)Nc1cc(NC(=O)Nc2cc(NC(=O)CCN3CCCC3)cc(C(=O)Nc3ccccc3)c2)cc(C(=O)Nc2ccccc2)c1 . Value?
## Output 4.49

## Input Endpoint output: pIC50 of O=C(CN1CCCC1)Nc1cccc(NC(=O)c2cccc(NC(=O)Nc3cccc(C(=O)Nc4cccc(NC(=O)CN5CCCC5)c4)c3)c2)c1 . Value?
## Output 4.47

## Input Endpoint output: pIC50 of O=C(CCN1CCOCC1)Nc1ccc(NC(=O)c2cccc(NC(=O)Nc3cccc(C(=O)Nc4ccc(NC(=O)CCN5CCOCC5)cc4)c3)c2)cc1 . Value?
## Output 4.39

## Input Endpoint output: pIC50 of O=C(CCN1CCCC1)Nc1ccc(NC(=O)c2cccc(NC(=O)Nc3cccc(C(=O)Nc4ccc(NC(=O)CCN5CCCC5)cc4)c3)c2)cc1 . Value?
## Output 5.59

## Input Endpoint output: pIC50 of CN(C)CCC(=O)Nc1ccc(NC(=O)c2cccc(NC(=O)Nc3cccc(C(=O)Nc4ccc(NC(=O)CCN(C)C)cc4)c3)c2)cc1 . Value?
## Output 4.91

###

- Tested system: Telomerase reverse transcriptase (Homo sapiens)
- Sequence (O14746 whole entry): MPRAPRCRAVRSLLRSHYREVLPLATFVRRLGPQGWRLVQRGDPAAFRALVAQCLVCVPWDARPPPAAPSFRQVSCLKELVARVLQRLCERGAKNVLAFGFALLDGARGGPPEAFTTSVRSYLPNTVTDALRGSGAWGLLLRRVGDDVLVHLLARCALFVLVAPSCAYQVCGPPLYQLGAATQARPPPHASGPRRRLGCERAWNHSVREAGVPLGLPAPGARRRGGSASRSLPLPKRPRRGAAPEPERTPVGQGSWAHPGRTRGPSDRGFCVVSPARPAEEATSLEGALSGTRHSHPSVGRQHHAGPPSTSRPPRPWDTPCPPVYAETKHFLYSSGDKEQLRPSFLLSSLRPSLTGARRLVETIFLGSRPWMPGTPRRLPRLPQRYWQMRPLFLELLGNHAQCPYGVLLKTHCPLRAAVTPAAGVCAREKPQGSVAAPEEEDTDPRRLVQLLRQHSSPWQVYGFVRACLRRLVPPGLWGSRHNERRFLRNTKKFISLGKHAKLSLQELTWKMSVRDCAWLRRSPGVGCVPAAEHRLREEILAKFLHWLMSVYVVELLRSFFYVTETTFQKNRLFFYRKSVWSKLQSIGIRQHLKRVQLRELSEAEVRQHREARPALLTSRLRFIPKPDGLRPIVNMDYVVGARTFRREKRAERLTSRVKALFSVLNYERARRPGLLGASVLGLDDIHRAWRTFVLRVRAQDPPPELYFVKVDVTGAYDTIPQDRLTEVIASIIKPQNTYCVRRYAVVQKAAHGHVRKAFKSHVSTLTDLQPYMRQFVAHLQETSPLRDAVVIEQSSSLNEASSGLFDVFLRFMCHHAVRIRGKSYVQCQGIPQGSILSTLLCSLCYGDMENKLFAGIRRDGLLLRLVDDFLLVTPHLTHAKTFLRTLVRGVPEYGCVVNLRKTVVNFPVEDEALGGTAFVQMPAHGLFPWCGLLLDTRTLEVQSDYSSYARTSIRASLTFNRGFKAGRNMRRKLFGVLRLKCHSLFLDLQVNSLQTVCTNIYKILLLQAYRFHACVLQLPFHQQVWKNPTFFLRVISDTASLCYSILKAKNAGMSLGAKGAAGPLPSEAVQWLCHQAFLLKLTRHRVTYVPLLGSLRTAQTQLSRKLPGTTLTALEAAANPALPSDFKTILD
- Assay info: Inhibition of telomerase by TRAP-LIG assay
# EC50 annotations
Field: numeric (µM). Do not append units.

>>> measured_value("CN(C)c1ccc(Nc2c3ccc(NC(=O)CCN4CCCC4)cc3nc3cc(NC(=O)CCN4CCCC4)ccc23)cc1")
6.3

Now look at this one.
## Input EC50 of C[n+]1ccc(-c2c3nc(c(-c4cc[n+](C)cc4)c4ccc([nH]4)c(-c4cc[n+](C)cc4)c4nc(c(-c5cc[n+](C)cc5)c5ccc2[nH]5)C=C4)C=C3)cc1 [TMPYP4 CHLORIDE] on Telomerase reverse transcriptase (Homo sapiens)?
## Output 8.9

###

# KA annotations
- Species: Homo sapiens
- Assay info: Binding affinity to biotin-labeled human telomeric d[AG3(T2AG3)3] sequence by surface plasmon resonance analysis
Field: numeric (×10⁶ /M). Do not append units.

Illustrative cases are given below, each with its answer.
>>> measured_value("O=C(CN1CCCC1)Nc1ccc(NC(=O)c2cccc(NC(=O)Nc3cccc(C(=O)Nc4ccc(NC(=O)CN5CCCC5)cc4)c3)c2)cc1")
1.4
>>> measured_value("O=C(CCN1CCCC1)Nc1ccc(NC(=O)c2cccc(NC(=O)Nc3cccc(C(=O)Nc4ccc(NC(=O)CCN5CCCC5)cc4)c3)c2)cc1")
1.1
>>> measured_value("O=C(CCCN1CCCC1)Nc1ccc(NC(=O)c2cccc(NC(=O)Nc3cccc(C(=O)Nc4ccc(NC(=O)CCCN5CCCC5)cc4)c3)c2)cc1")
0.4

Now look at this one.
## Input Endpoint output: KA of CN(C)c1ccc(Nc2c3ccc(NC(=O)CCN4CCCC4)cc3nc3cc(NC(=O)CCN4CCCC4)ccc23)cc1 . Value?
## Output 31

###

- Assay info: Stabilization of d[C3G3CG3CGCGAG3AG4AG2] sequence of c-kit2 G-quadruplex DNA assessed as change in melting temperature at 1 uM by FRET assay
Label fulfilled when change in melting temperature (ΔTm) is at or above 10 °C; anything below gets not fulfilled.

Below, 4 molecules whose answers are already recorded.
>>> assigned_class("O=C(CCCN1CCCC1)Nc1ccc(NC(=O)c2cccc(NC(=O)Nc3cccc(C(=O)Nc4ccc(NC(=O)CCCN5CCCC5)cc4)c3)c2)cc1")
"fulfilled"
>>> assigned_class("O=C(CN1CCCC1)Nc1cccc(NC(=O)c2cccc(NC(=O)Nc3cccc(C(=O)Nc4cccc(NC(=O)CN5CCCC5)c4)c3)c2)c1")
"fulfilled"
>>> assigned_class("O=C(CCCN1CCCC1)Nc1cccc(NC(=O)c2cccc(NC(=O)Nc3cccc(C(=O)Nc4cccc(NC(=O)CCCN5CCCC5)c4)c3)c2)c1")
"fulfilled"
>>> assigned_class("CN(C)c1ccc(Nc2c3ccc(NC(=O)CCN4CCCC4)cc3nc3cc(NC(=O)CCN4CCCC4)ccc23)cc1")
"fulfilled"

## Input Determine whether measured change in melting temperature (ΔTm) meets or exceeds 10 °C for O=C(CN1CCCC1)Nc1cc(NC(=O)Nc2cc(NC(=O)CN3CCCC3)cc(C(=O)Nc3ccccc3)c2)cc(C(=O)Nc2ccccc2)c1
## Output not fulfilled

## Input Determine whether measured change in melting temperature (ΔTm) meets or exceeds 10 °C for O=C(CCCN1CCCC1)Nc1cc(NC(=O)Nc2cc(NC(=O)CCCN3CCCC3)cc(C(=O)Nc3ccccc3)c2)cc(C(=O)Nc2ccccc2)c1
## Output fulfilled

## Input Determine whether measured change in melting temperature (ΔTm) meets or exceeds 10 °C for O=C(CCN1CCCC1)Nc1cccc(NC(=O)c2ccc(NC(=O)Nc3ccc(C(=O)Nc4cccc(NC(=O)CCN5CCCC5)c4)cc3)cc2)c1
## Output not fulfilled

###

- Assay info: Stabilization of d[AGAG3AG2GCGCTG3AG2AG3GCT] sequence of c-kit1 G-quadruplex DNA assessed as change in melting temperature at 1 uM by FRET assay
Parameter: change in melting temperature (ΔTm) (°C)
Field: numeric (°C). Do not append units.

Illustrative cases are given below, each with its answer.
>>> measured_value("O=C(CCN1CCCC1)Nc1cccc(NC(=O)c2ccc(NC(=O)Nc3ccc(C(=O)Nc4cccc(NC(=O)CCN5CCCC5)c4)cc3)cc2)c1")
0.5
>>> measured_value("O=C(CCN1CCCC1)Nc1ccc(NC(=O)c2cccc(NC(=O)Nc3cccc(C(=O)Nc4ccc(NC(=O)CCN5CCCC5)cc4)c3)c2)cc1")
10.2

Now look at this one.
## Input Endpoint output: change in melting temperature (ΔTm) of O=C(CCN1CCCC1)Nc1cccc(NC(=O)c2cccc(NC(=O)Nc3cccc(C(=O)Nc4cccc(NC(=O)CCN5CCCC5)c4)c3)c2)c1 . Value?
## Output 6.7

###

- System: A549
- Assay info: Cytotoxicity against human A549 cells after 96 hrs by SRB assay
- Assay type: functional, cell-based
- Test conditions: A549, 96 h
# IC50 annotations

>>> measured_value("O=C(CCN1CCCC1)Nc1cccc(NC(=O)c2ccc(NC(=O)Nc3ccc(C(=O)Nc4cccc(NC(=O)CCN5CCCC5)c4)cc3)cc2)c1")
"4.3 µM"
>>> measured_value("O=C(CN1CCCC1)Nc1cccc(NC(=O)c2cccc(NC(=O)Nc3cccc(C(=O)Nc4cccc(NC(=O)CN5CCCC5)c4)c3)c2)c1")
"> 50 µM"

## Input Endpoint output: IC50 of O=C(CN1CCCC1)Nc1ccc(NC(=O)c2ccc(NC(=O)Nc3ccc(C(=O)Nc4ccc(NC(=O)CN5CCCC5)cc4)cc3)cc2)cc1 . Value?
## Output > 25 µM

## Input Endpoint output: IC50 of O=C(CCN1CCCC1)Nc1cccc(NC(=O)c2cccc(NC(=O)Nc3cccc(C(=O)Nc4cccc(NC(=O)CCN5CCCC5)c4)c3)c2)c1 . Value?
## Output > 50 µM

## Input Endpoint output: IC50 of O=C(CCCN1CCCC1)Nc1cc(NC(=O)Nc2cc(NC(=O)CCCN3CCCC3)cc(C(=O)Nc3ccccc3)c2)cc(C(=O)Nc2ccccc2)c1 . Value?
## Output 30.6 µM

###

- Assay info: Stabilization of d[C3G3CG3CGCGAG3AG4AG2] sequence of c-kit2 G-quadruplex DNA assessed as change in melting temperature at 1 uM by FRET assay
Parameter: change in melting temperature (ΔTm) (°C)
Field: numeric (°C). Do not append units.

## Input Endpoint output: change in melting temperature (ΔTm) of O=C(CCN1CCCC1)Nc1cc(NC(=O)Nc2cc(NC(=O)CCN3CCCC3)cc(C(=O)Nc3ccccc3)c2)cc(C(=O)Nc2ccccc2)c1 . Value?
## Output 12.9

## Input Endpoint output: change in melting temperature (ΔTm) of O=C(CCN1CCCC1)Nc1ccc(NC(=O)c2cccc(NC(=O)Nc3cccc(C(=O)Nc4ccc(NC(=O)CCN5CCCC5)cc4)c3)c2)cc1 . Value?
## Output 18.7

## Input Endpoint output: change in melting temperature (ΔTm) of O=C(CCN1CCOCC1)Nc1ccc(NC(=O)c2cccc(NC(=O)Nc3cccc(C(=O)Nc4ccc(NC(=O)CCN5CCOCC5)cc4)c3)c2)cc1 . Value?
## Output 1.3

## Input Endpoint output: change in melting temperature (ΔTm) of CN(C)CCC(=O)Nc1ccc(NC(=O)c2cccc(NC(=O)Nc3cccc(C(=O)Nc4ccc(NC(=O)CCN(C)C)cc4)c3)c2)cc1 . Value?
## Output 13.6

## Input Endpoint output: change in melting temperature (ΔTm) of O=C(CCN1CCCC1)Nc1cccc(NC(=O)c2cccc(NC(=O)Nc3cccc(C(=O)Nc4cccc(NC(=O)CCN5CCCC5)c4)c3)c2)c1 . Value?
## Output 15.3

## Input Endpoint output: change in melting temperature (ΔTm) of O=C(CCN1CCCCC1)Nc1ccc(NC(=O)c2cccc(NC(=O)Nc3cccc(C(=O)Nc4ccc(NC(=O)CCN5CCCCC5)cc4)c3)c2)cc1 . Value?
## Output 7.1

## Input Endpoint output: change in melting temperature (ΔTm) of O=C(CCCN1CCCC1)Nc1cccc(NC(=O)c2ccc(NC(=O)Nc3ccc(C(=O)Nc4cccc(NC(=O)CCCN5CCCC5)c4)cc3)cc2)c1 . Value?
## Output 6.5

## Input Endpoint output: change in melting temperature (ΔTm) of O=C(CN1CCCC1)Nc1ccc(NC(=O)c2cccc(NC(=O)Nc3cccc(C(=O)Nc4ccc(NC(=O)CN5CCCC5)cc4)c3)c2)cc1 . Value?
## Output 11.3

## Input Endpoint output: change in melting temperature (ΔTm) of O=C(CN1CCCC1)Nc1cccc(NC(=O)c2ccc(NC(=O)Nc3ccc(C(=O)Nc4cccc(NC(=O)CN5CCCC5)c4)cc3)cc2)c1 . Value?
## Output 2
